Condition notes: 353.15 K; 101.33 kPa; Liquid
Measured quantity: viscosity (mPa·s)

>  <Compound>
CCCC[N+](C)(CCCC)CCCC.N[C@@H](CO)C(=O)[O-] [N,N-dibutyl-N-methylbutanaminium L-serinate]

>  <Measured quantity>
viscosity

>  <Test value>
111.8

$$$$

a: CCCC[N+](C)(CCCC)CCCC.NCCCC[C@H](N)C(=O)[O-] [N,N-dibutyl-N-methyl-1-butanaminium L-lysinate]
b: CCCC[N+](C)(CCCC)CCCC.C[C@@H](O)[C@H](N)C(=O)[O-] [N,N-dibutyl-N-methyl-1-butanaminium L-threoninate]
Compare viscosity: is it lower for a or for b ? Return value: the label identifying the chosen record.
a
(a: 68.3 mPa·s, b: 110.9 mPa·s)

a: CCCC[P+](CCCC)(CCCC)CCCC.N[C@@H](CO)C(=O)[O-] [tetrabutylphosphonium L-serinate]
b: CCCC[P+](CCCC)(CCCC)CCCC.N[C@@H](CS)C(=O)[O-] [tetrabutylphosphonium L-cysteinate]
// returns a or b , whichever has the lower viscosity # reply format: chosen label
a
(a: 49.7 mPa·s, b: 72.5 mPa·s)
